system: VDR homodimer (NR concentration 270 nM); experiment: PBM binding z-score (relative to random genomic background probes); higher = stronger binding; sequences stand for … in GC…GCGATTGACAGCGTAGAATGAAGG
observed property: PBM binding z-score
Provide a numeric answer; units are not to be included.

Look over these answered cases.
sequence_record=TGTCAAAGTTCAAAGGTAGCGTAAGTATCCACAC observed_property="PBM binding z-score" recorded_measurement=3.39
sequence_record=CTCGAAAGTTCGTGCTCAGGTGAGTATACCAAAC observed_property="PBM binding z-score" recorded_measurement=1.88
sequence_record=TCGAGTAGGATAGGGGCATTCAGAATGGCGTCGA observed_property="PBM binding z-score" recorded_measurement=0.237
sequence_record=ACACGGAGGACAAAGGTCAGAGCTACGCCAGTGA observed_property="PBM binding z-score" recorded_measurement=1.17
sequence_record=TCACGGAGGACACGAAGGTCAGAGCTTTCCAGAG observed_property="PBM binding z-score" recorded_measurement=1.42
sequence_record=AGAACGAGTGCACGCTGAGTTGATAGCAGAGTAG observed_property="PBM binding z-score" recorded_measurement=2.64
sequence_record=TCTGCTAGGTGAACGATGGTCAGCTAATCTGCTA observed_property="PBM binding z-score" recorded_measurement=-0.782
sequence_record=GCTAGTTGGTCAGTAAAAGGTTACACACCGGTCG observed_property="PBM binding z-score" recorded_measurement=0.234

Incoming: // query PBM binding z-score value for entry CCAAGTTGGTCAGGAGGTCACACACCGGATATGA
Outgoing: 2.65

Incoming: Please look up its PBM binding z-score: CAGCCTAGGTCAGGGCCCGTATAGGAGGAACGTT
Outgoing: -0.478

Incoming: Given TCTGCTAGCTCAGTTGGTCAGCTAACGAGCTGCC , state its recorded PBM binding z-score.
Outgoing: -1.56

Source listed as the supplement of paper PMC6555819.
